Origin of the recorded values: patent EP4596580A1

Recorded kon, one value per entry.
# System Under Test: T1, His-human LIGHT (human)
# T1 construct: also called His-huLIGHT; free LIGHT
# T1 chain: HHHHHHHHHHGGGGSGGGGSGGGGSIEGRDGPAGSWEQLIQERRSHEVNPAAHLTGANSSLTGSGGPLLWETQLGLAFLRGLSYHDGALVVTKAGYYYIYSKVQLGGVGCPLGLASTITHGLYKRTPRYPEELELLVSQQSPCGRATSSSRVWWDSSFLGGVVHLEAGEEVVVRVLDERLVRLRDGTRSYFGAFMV
# Method Description: SPR, Biacore 8K, antibody on CM5 chip

>  <Binder>
LT-m85 (antibody, human IgG4, V domains shown) VH: EVQLQQSGAELVKPGASVKMSCKASGYTFTSYNVHWVKQTPGQGLEWIGAVYPGNGDTSYNQKFKGKATLTADKSSNTAYMQLSSLTSEDSAVYYCARGSYYYTSSYFDHWGQGTTLTVSS VL: DIVLTQSPASLAVSLGQRATISCKASQSVDFDGDSYMNWYQQKPGQPPKLLIYTASNLESGIPARFTGSGSGTDFTLNIHPVEEEDAATYYCQQSYEDPFTFGSGTKLEIK

>  <kon, M⁻¹ s⁻¹>
783000

$$$$
>  <Binder>
LT-m31 (antibody, human IgG4, V domains shown) VH: QIQLLQSGPELEKPGETVKISCKASGYTFTNYGMNWVKQAPGKGLKWMGWINTYTGEPTYADDFKGRFAFSLETSASTAYLQINNLKNEDTATYFCARDNWDGKGMDYWGQGTSVTVSS VL: DIVLTQSPKFMSTSVGDRVSITCKASQDVDTAVAWYQQKPGHSPKLLLYWASTRHTGVPDRFTGSGSGTDFTLTISNVQSEDLADYFCHQYGSYPLTFGAGTKLELK

>  <kon, M⁻¹ s⁻¹>
1.02e+06

$$$$
>  <Binder>
LT-m58 (antibody, human IgG4, V domains shown) VH: QVQLQQSGAEMASPGASVTLSCKASGYTFIDHIMNWVKKRPGQGLEWIGRIYPVSGETNYNQKFMGKATFSVDRSSSTVYMVLNSLTSEDPAVYYCGRGSYYWNAMDYWGQGTTLTVSS VL: DIVMTQSPASLAVSLGQRATISCKASQSVDFDGDSYMNWYQQKPGQPPKLLIYSASNLESGIPARFSGSGSGTDFTLNIHPVEEEDAATYYCQQSIEDPWTFGGGTKLEIK

>  <kon, M⁻¹ s⁻¹>
385000

$$$$
>  <Binder>
LT-m64 (antibody, human IgG4, V domains shown) VH: EVKLEESGAELVKPGASVRLSCKTSGYTFTNYYVYWVKQRPGQGLEWIGEINPTNGDPNFNEKFKSKATLTVDKSSSTAYMHLSSLTSEDSAVYYCTRSNWDYGNAMDFWGQGTSVTVSS VL: DIVMTQSPASLAVSLGQRATISCKASQSVDFDGDGYMNWYQQKPGQPPKLLIYKASHLDSGIPARFSASGSGTDFTLNIHPVEEEDAATYYCQQSIEDPFTFGSGTKLEIK

>  <kon, M⁻¹ s⁻¹>
1.01e+06

$$$$
>  <Binder>
LT-m33 (antibody, human IgG4, V domains shown) VH: QVQLKQSGAELVKPGASVRLSCKTSGYTFTNYYVYWVKQRPGQGLEWIGEINPTNGDPNFNEKFKSKATLTVDKSSSTAYMHLSSLTSEDSAVYYCTRSNWDYGNAMDFWGQGTSVTVSS VL: DIVMTQSPASLAVSLGQRATISCKASQSVDFDGDGYMNWYQQKPGQPPKLLIYKASHLDSGIPARFSGSGSGTDFTLNIHPVEEEDAATYYCQQSIEDPLTFGDGTRLEIK

>  <kon, M⁻¹ s⁻¹>
1.73e+06

$$$$
>  <Binder>
LT-m55 (antibody, human IgG4, V domains shown) VH: EVQLQQSGAELVKPGASVKLSCKASGYTFATYYMYWVKQRPGQGLEWIGEINPTNGGTIFNEKFKTKATLTVDKSSSTAYMQLSSLTSEDSAVYYCARGNWPYWSFDVWGAGTSVTVSS VL: DIVLTQSPASLAVSLGQRATISCKASQSVDFDGDNYMNWYQQKPGQPPKLLIYAASNLDSGIPARFSASGSGTDFTLNIHPVEEEDAATYYCQQSIEDPWTFGGGTKLEIK

>  <kon, M⁻¹ s⁻¹>
877000

$$$$
